system: Plasmodium falciparum; test: Calibr Malaria Delayed Death Assay SOP; type: functional, organism-based; set-up: scale not given: in the data most compounds retested in dose-response had high values; conditions: concentration 4.99e-06 (unit not given; other assays of the set use mol/L)
The campaign covered roughly 38,000 compounds. About 1,200 (3.2%) showed an effect of 50% or more. The median lay at about -58%. The list comes from a sample in which strong results are over-represented; it also holds close analogues and randomly drawn compounds.

{"Molecule": "Cc1cccc(CN2CC[C@@H]3[C@@H]2CCN3C(=O)c2cc(C)oc2C)n1.O=C(O)C(F)(F)F", "Test Target": "Plasmodium falciparum", "Uom": "%", "Percent Effect": -98.87}
{"Molecule": "Fc1ccc2[nH]c(C3CCCN3Cc3c[nH]cn3)nc2c1 (stereo not drawn)", "Test Target": "Plasmodium falciparum", "Uom": "%", "Percent Effect": 80.29}
{"Molecule": "COCCCN(C)C(=O)c1cccc(Nc2cnccn2)c1", "Test Target": "Plasmodium falciparum", "Uom": "%", "Percent Effect": -92.25}
{"Molecule": "COc1ccc(OC)c(NC(=O)c2cc3c([nH]c2=O)CCCC3=O)c1", "Test Target": "Plasmodium falciparum", "Uom": "%", "Percent Effect": -53.3}
{"Molecule": "Cc1cnc2c(S(=O)(=O)NCC3CC3)cccc2c1", "Test Target": "Plasmodium falciparum", "Uom": "%", "Percent Effect": -114.6}
{"Molecule": "CN(C)CCn1ccnc1C1CCCN(c2ncc(Cl)cc2F)C1 (stereo not drawn)", "Test Target": "Plasmodium falciparum", "Uom": "%", "Percent Effect": 35.69}
{"Molecule": "CS(=O)(=O)N1C[C@@H]2COC[C@]2(COCC(=O)N2CCCC2)C1", "Test Target": "Plasmodium falciparum", "Uom": "%", "Percent Effect": -14.15}
{"Molecule": "CCOC(C)C(=O)N1CCCN(Cc2csc(CC)n2)CC1 (stereo not drawn)", "Test Target": "Plasmodium falciparum", "Uom": "%", "Percent Effect": -48.75}

---

test system: Plasmodium falciparum; assay: Calibr Malaria Delayed Death Assay SOP; format: functional, organism-based; parameters: scale not given: in the data most compounds retested in dose-response had high values; conditions: concentration 4.99e-06 (unit not given; other assays of the set use mol/L)
Hit rate of the full screen: of about 38,000 compounds, about 1,200 (3.2%) showed an effect of 50% or more. The median lay at about -58%. This excerpt belongs to a sample that is enriched for strong results.
Endpoint: Percent Effect

{"Compound": "OCCN(CCO)Cc1ccc(Br)c2cccnc12", "Result": "-31.32%"}
{"Compound": "CC(C)c1nc(CN2CCOC(CNc3cccnn3)C2)cs1 (stereo not given)", "Result": "-68.41%"}
{"Compound": "Cn1nccc1C(=O)N1CCCC2(CCN(c3ccsc3)C2=O)C1 (stereo not given)", "Result": "-40.86%"}
{"Compound": "CC(=O)c1ccc(-c2cc(C(F)(F)F)cc(N(C)C)n2)cc1", "Result": "-183.7%"}
{"Compound": "CC(=O)c1cnc(N(C)Cc2cc(C)cc(C)n2)nc1C", "Result": "10.35%"}
{"Compound": "O=c1oc2ccccc2n1CCCN1CCCC1c1ccc(O)cc1 (stereo not given)", "Result": "52.75%"}
{"Compound": "CCN1CCc2[nH]cnc2C12CCN(C(=O)CCc1cccs1)CC2", "Result": "-14.54%"}
{"Compound": "COc1cccc([C@@H]2CCN(Cc3[nH]nc(C)c3Cl)C[C@H]2O)c1", "Result": "-13.94%"}
{"Compound": "CCOc1cccc(COC(=O)c2cc(C)on2)n1", "Result": "-20.94%"}
{"Compound": "COC1COC2(CCN(C(=O)c3ccc4ccccc4c3)CC2)C1 (stereo not given)", "Result": "-205.6%"}
{"Compound": "CN(C)CCNCC1COCc2c(-c3ccnn3C)nnn2C1 (stereo not given)", "Result": "-61.69%"}
{"Compound": "CNc1nc2c(s1)C(=O)CN(C(=O)NCCc1ccccc1)C2", "Result": "-35.41%"}
{"Compound": "CCN1CCC(N2C[C@@H](C(=O)O)[C@H](c3cccc(OC)c3)C2)CC1", "Result": "-103.5%"}
{"Compound": "Cc1nc(C2CCCN2CCCn2c(=O)oc3ccccc32)no1 (stereo not given)", "Result": "-48.08%"}
{"Compound": "N#CCCN(CCC#N)Cc1ccc(Br)c2cccnc12", "Result": "-154.3%"}
